# TESTED ON: Peroxisome proliferator-activated receptor gamma (Homo sapiens)
# ASSAY NOTES: Transactivation of GAL4-fused human PPARgamma ligand binding domain expressed in HepG2 cells up to 10 uM after 20 hrs by luciferase reporter gene assay
# Format: cell-based
Active and inactive are the calls of the source. The rule behind the calls is not given here.
Tick one outcome: active, inactive

So what was the verdict on Cc1cccc(Nc2cc(Cl)nc(SCC(=O)O)n2)c1C in this test?
inactive

So what was the verdict on O=C(O)C(Cc1ccccc1)Oc1ccc(-c2ccccc2CCc2ccccc2)cc1 (racemic) in this test?
active

So what was the verdict on CC(C)c1ccccc1-c1ccc(OC(Cc2ccccc2)C(=O)O)cc1 (single isomer, unassigned; form 2) in this test?
active

So what was the verdict on CCCc1ccccc1-c1ccc(OC(Cc2ccccc2)C(=O)O)cc1 (racemic) in this test?
active

So what was the verdict on CCCCCc1ccccc1-c1ccc(OC(Cc2ccccc2)C(=O)O)cc1 (racemic) in this test?
active

----------
Please respond with reported Emax for every item in the list.
# TESTED ON: Peroxisome proliferator-activated receptor alpha (Homo sapiens)
# ASSAY NOTES: Transactivation of GAL4-fused human PPARalpha ligand binding domain expressed in HepG2 cells after 20 hrs by luciferase reporter gene assay relative to WY-14643
# Assay type: cell-based
Quick note: give the figure in %, leave out the unit.

For O=C(O)[C@H](Cc1ccccc1)Oc1ccc(-c2ccccc2)cc1 the molecule record lists Emax as 116

For Cc1ccccc1-c1ccc(O[C@@H](Cc2ccccc2)C(=O)O)cc1 the molecule record lists Emax as 155

For Cc1ccccc1-c1ccc(O[C@@H](Cc2ccccc2)C(=O)O)cc1C the molecule record lists Emax as 133

For Cc1cc(O[C@@H](Cc2ccccc2)C(=O)O)ccc1-c1ccccc1 the molecule record lists Emax as 120

For O=C(O)[C@H](Cc1ccccc1)Oc1ccc(-c2ccccc2C(F)(F)F)cc1 the molecule record lists Emax as 126

For CC(C)c1ccccc1-c1ccc(OC(Cc2ccccc2)C(=O)O)cc1 (single isomer, unassigned; form 2) the molecule record lists Emax as 145

For CC(C)c1ccccc1-c1ccc(OC(Cc2ccccc2)C(=O)O)cc1 (single isomer, unassigned; form 1) the molecule record lists Emax as 147

For Cc1cccc(-c2ccc(OC(Cc3ccccc3)C(=O)O)cc2)c1 (racemic) the molecule record lists Emax as 69

For Cc1cccc(C)c1-c1ccc(O[C@@H](Cc2ccccc2)C(=O)O)cc1 the molecule record lists Emax as 123

For O=C(O)[C@H](Cc1ccccc1)Oc1ccc(-c2ccccc2F)cc1 the molecule record lists Emax as 68

----------
# TESTED ON: Peroxisome proliferator-activated receptor alpha (Homo sapiens)
# ASSAY NOTES: Transactivation of GAL4-fused human PPARalpha ligand binding domain expressed in HepG2 cells after 20 hrs by luciferase reporter gene assay
MEASURED QUANTITY: pEC50
The quantity pEC50 is defined as the negative base-10 logarithm of the molar concentration.

Field pEC50 (Peroxisome proliferator-activated receptor alpha (Homo sapiens)), entry Cc1cccc(C)c1-c1ccc(O[C@@H](Cc2ccccc2)C(=O)O)cc1 : 6.64

Field pEC50 (Peroxisome proliferator-activated receptor alpha (Homo sapiens)), entry O=C(O)[C@H](Cc1ccccc1)Oc1ccc(-c2ccccc2-c2ccccc2)cc1 : 7.36

Field pEC50 (Peroxisome proliferator-activated receptor alpha (Homo sapiens)), entry Cc1cc(OC(Cc2ccccc2)C(=O)O)cc(C)c1-c1ccccc1 (racemic) : 5.68

Field pEC50 (Peroxisome proliferator-activated receptor alpha (Homo sapiens)), entry Cc1cc(-c2ccccc2)cc(C)c1O[C@@H](Cc1ccccc1)C(=O)O : 5.95

Field pEC50 (Peroxisome proliferator-activated receptor alpha (Homo sapiens)), entry Cc1ccccc1-c1ccc(O[C@@H](Cc2ccccc2)C(=O)O)cc1 : 7.17

Field pEC50 (Peroxisome proliferator-activated receptor alpha (Homo sapiens)), entry CCCCCc1ccccc1-c1ccc(OC(Cc2ccccc2)C(=O)O)cc1 (racemic) : 6.30

Field pEC50 (Peroxisome proliferator-activated receptor alpha (Homo sapiens)), entry Cc1ccc(-c2ccc(O[C@@H](Cc3ccccc3)C(=O)O)cc2)cc1 : 6.68

Field pEC50 (Peroxisome proliferator-activated receptor alpha (Homo sapiens)), entry Cc1cccc(-c2ccc(OC(Cc3ccccc3)C(=O)O)cc2)c1 (racemic) : 6.66

Field pEC50 (Peroxisome proliferator-activated receptor alpha (Homo sapiens)), entry Cc1ccccc1-c1ccc(O[C@@H](Cc2ccccc2)C(=O)O)cc1C : 7.51

Field pEC50 (Peroxisome proliferator-activated receptor alpha (Homo sapiens)), entry Cc1cc(O[C@@H](Cc2ccccc2)C(=O)O)ccc1-c1ccccc1 : 7.10

Field pEC50 (Peroxisome proliferator-activated receptor alpha (Homo sapiens)), entry O=C(O)[C@H](Cc1ccccc1)Oc1ccc(-c2ccccc2F)cc1 : 6.92

Field pEC50 (Peroxisome proliferator-activated receptor alpha (Homo sapiens)), entry O=C(O)C(Cc1ccccc1)Oc1ccc(-c2ccccc2CCc2ccccc2)cc1 (racemic) : 6.55

Field pEC50 (Peroxisome proliferator-activated receptor alpha (Homo sapiens)), entry CCCc1ccccc1-c1ccc(OC(Cc2ccccc2)C(=O)O)cc1 (racemic) : 6.62

Field pEC50 (Peroxisome proliferator-activated receptor alpha (Homo sapiens)), entry CC(C)c1ccccc1-c1ccc(OC(Cc2ccccc2)C(=O)O)cc1 (single isomer, unassigned; form 2) : 7.00

Field pEC50 (Peroxisome proliferator-activated receptor alpha (Homo sapiens)), entry Cc1cc(-c2ccccc2)ccc1O[C@@H](Cc1ccccc1)C(=O)O : 6.00

Field pEC50 (Peroxisome proliferator-activated receptor alpha (Homo sapiens)), entry COc1ccccc1-c1ccc(O[C@@H](Cc2ccccc2)C(=O)O)cc1 : 6.89

Field pEC50 (Peroxisome proliferator-activated receptor alpha (Homo sapiens)), entry CCc1ccccc1-c1ccc(O[C@@H](Cc2ccccc2)C(=O)O)cc1 : 7.92

Field pEC50 (Peroxisome proliferator-activated receptor alpha (Homo sapiens)), entry O=C(O)[C@H](Cc1ccccc1)Oc1ccc(-c2ccccc2C(F)(F)F)cc1 : 7.66

Field pEC50 (Peroxisome proliferator-activated receptor alpha (Homo sapiens)), entry CC(C)c1ccccc1-c1ccc(OC(Cc2ccccc2)C(=O)O)cc1 (single isomer, unassigned; form 1) : 7.92

----------
# TESTED ON: Peroxisome proliferator-activated receptor alpha (Homo sapiens) (UniProt Q07869)
# Sequence (Q07869 whole entry, the tested form may be a part): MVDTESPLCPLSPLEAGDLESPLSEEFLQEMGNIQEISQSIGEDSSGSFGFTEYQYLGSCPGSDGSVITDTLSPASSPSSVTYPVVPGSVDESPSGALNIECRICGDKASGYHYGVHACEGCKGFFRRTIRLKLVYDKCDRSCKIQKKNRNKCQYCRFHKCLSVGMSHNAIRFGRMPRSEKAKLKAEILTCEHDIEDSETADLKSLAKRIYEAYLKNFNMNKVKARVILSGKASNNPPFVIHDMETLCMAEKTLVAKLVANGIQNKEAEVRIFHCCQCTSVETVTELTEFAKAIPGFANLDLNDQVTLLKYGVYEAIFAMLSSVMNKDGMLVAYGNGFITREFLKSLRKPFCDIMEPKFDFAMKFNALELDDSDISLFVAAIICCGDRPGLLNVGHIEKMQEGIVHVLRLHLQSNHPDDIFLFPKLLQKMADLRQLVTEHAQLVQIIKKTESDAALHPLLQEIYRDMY
# ASSAY NOTES: Transactivation of GAL4-fused human PPARalpha ligand binding domain expressed in HepG2 cells after 20 hrs by luciferase reporter gene assay relative to WY-14643
# Assay type: cell-based
Note to self: values exactly at 70% are Yes. So Emax at or above 70% is Yes, below is No.

Does the reported Emax for Cc1cc(-c2ccccc2)cc(C)c1O[C@@H](Cc1ccccc1)C(=O)O fall at or above the 70% mark?
No

Does the reported Emax for Cc1ccc(-c2ccc(O[C@@H](Cc3ccccc3)C(=O)O)cc2)cc1 fall at or above the 70% mark?
Yes

Does the reported Emax for Cc1cc(OC(Cc2ccccc2)C(=O)O)cc(C)c1-c1ccccc1 (racemic) fall at or above the 70% mark?
No

Does the reported Emax for O=C(O)[C@H](Cc1ccccc1)Oc1ccc(-c2ccccc2-c2ccccc2)cc1 fall at or above the 70% mark?
Yes

----------
# TESTED ON: Peroxisome proliferator-activated receptor alpha (Homo sapiens) (UniProt Q07869)
# ASSAY NOTES: Transactivation of GAL4-fused human PPARalpha ligand binding domain expressed in HepG2 cells after 20 hrs by luciferase reporter gene assay relative to WY-14643
# Format: cell-based
MEASURED QUANTITY: Emax (%)
Quick note: give the figure in %, leave out the unit.

For CCc1ccccc1-c1ccc(O[C@@H](Cc2ccccc2)C(=O)O)cc1 the compound record lists Emax as 143

For COc1ccccc1-c1ccc(O[C@@H](Cc2ccccc2)C(=O)O)cc1 the compound record lists Emax as 124

For CCCCCc1ccccc1-c1ccc(OC(Cc2ccccc2)C(=O)O)cc1 (racemic) the compound record lists Emax as 107

For O=C(O)C(Cc1ccccc1)Oc1ccc(-c2ccccc2CCc2ccccc2)cc1 (racemic) the compound record lists Emax as 73

For CCCc1ccccc1-c1ccc(OC(Cc2ccccc2)C(=O)O)cc1 (racemic) the compound record lists Emax as 131

----------
# TESTED ON: Peroxisome proliferator-activated receptor gamma (Homo sapiens, UniProt P37231)
# Sequence (P37231 whole entry, the tested form may be a part): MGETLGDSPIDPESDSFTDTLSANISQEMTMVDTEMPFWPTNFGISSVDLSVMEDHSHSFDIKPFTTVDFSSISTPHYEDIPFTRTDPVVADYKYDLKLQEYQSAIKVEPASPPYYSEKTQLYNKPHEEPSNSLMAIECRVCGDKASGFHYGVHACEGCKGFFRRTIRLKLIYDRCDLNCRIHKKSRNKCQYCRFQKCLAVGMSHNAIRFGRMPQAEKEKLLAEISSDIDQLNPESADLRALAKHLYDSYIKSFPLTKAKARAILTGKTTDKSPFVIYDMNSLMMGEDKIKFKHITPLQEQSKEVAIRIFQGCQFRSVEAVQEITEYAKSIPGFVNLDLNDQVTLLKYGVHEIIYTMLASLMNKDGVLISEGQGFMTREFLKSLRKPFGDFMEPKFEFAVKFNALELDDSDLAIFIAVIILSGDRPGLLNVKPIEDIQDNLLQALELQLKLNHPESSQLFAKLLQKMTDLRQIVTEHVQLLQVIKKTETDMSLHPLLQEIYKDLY
# ASSAY NOTES: Transactivation of GAL4-fused human PPARgamma ligand binding domain expressed in HepG2 cells after 20 hrs by luciferase reporter gene assay
MEASURED QUANTITY: EC50
Value and unit, in that order.

For Cc1ccccc1-c1ccc(O[C@@H](Cc2ccccc2)C(=O)O)cc1C the compound record lists EC50 as 640 nM

For Cc1ccccc1-c1ccc(O[C@@H](Cc2ccccc2)C(=O)O)cc1 the compound record lists EC50 as 1360 nM

For CCc1ccccc1-c1ccc(O[C@@H](Cc2ccccc2)C(=O)O)cc1 the compound record lists EC50 as 1200 nM

For O=C(O)[C@H](Cc1ccccc1)Oc1ccc(-c2ccccc2F)cc1 the compound record lists EC50 as 690 nM

For Cc1cc(OC(Cc2ccccc2)C(=O)O)cc(C)c1-c1ccccc1 (racemic) the compound record lists EC50 as 2040 nM

For Cc1cc(O[C@@H](Cc2ccccc2)C(=O)O)ccc1-c1ccccc1 the compound record lists EC50 as 700 nM

For CC(C)c1ccccc1-c1ccc(OC(Cc2ccccc2)C(=O)O)cc1 (single isomer, unassigned; form 1) the compound record lists EC50 as 1000 nM

For Cc1cc(-c2ccccc2)ccc1O[C@@H](Cc1ccccc1)C(=O)O the compound record lists EC50 as 700 nM

For COc1ccccc1-c1ccc(O[C@@H](Cc2ccccc2)C(=O)O)cc1 the compound record lists EC50 as 2300 nM

For Cc1ccc(-c2ccc(O[C@@H](Cc3ccccc3)C(=O)O)cc2)cc1 the compound record lists EC50 as 590 nM

For Cc1cccc(C)c1-c1ccc(O[C@@H](Cc2ccccc2)C(=O)O)cc1 the compound record lists EC50 as 2540 nM

For O=C(O)[C@H](Cc1ccccc1)Oc1ccc(-c2ccccc2C(F)(F)F)cc1 the compound record lists EC50 as 1000 nM

For O=C(O)[C@H](Cc1ccccc1)Oc1ccc(-c2ccccc2-c2ccccc2)cc1 the compound record lists EC50 as 1400 nM

For Cc1cccc(-c2ccc(OC(Cc3ccccc3)C(=O)O)cc2)c1 (racemic) the compound record lists EC50 as 460 nM

For Cc1cc(-c2ccccc2)cc(C)c1O[C@@H](Cc1ccccc1)C(=O)O the compound record lists EC50 as 3100 nM

The origin of these recorded values is ChEMBL document CHEMBL2311299.
